Test system: MDA-MB-231 breast
Test: NCI tumour cell line growth inhibition, 48 h

compound	system name	TGI
O=C1CC(C(=O)O)Cc2c(Br)ccc(O)c21 (centres undefined)	MDA-MB-231 breast	> 100 µM
CC(C)(Oc1ccc(C(=O)c2ccc(Cl)cc2)cc1Cl)C(=O)N1CCN(CCO)CC1	MDA-MB-231 breast	> 10 µM
O=C(O)CCNc1ncc2c(n1)-c1ccccc1OC2	MDA-MB-231 breast	> 100 µM
COC(=O)CN=C1NC(=S)N(Cc2ccc(OC)cc2)C12CCCC2	MDA-MB-231 breast	> 100 µM

* * *

Form field: TGI (one value per entry).
System: SF-539 CNS
Assay: NCI tumour cell line growth inhibition, 48 h
reported property: TGI

smiles repr	experimental result
Cc1n[nH]c(=O)n1Nc1ccccc1	> 100 µM
CC(C)NC(=O)OCc1nnn2c1CCC2	> 100 µM
Cc1cccc2c(N)c3cccc(C(=O)NCC[N+](C)(C)Cc4ccc(S(C)(=O)=O)cc4)c3nc12	> 100 µM

* * *

Test system: HT29 colon
Experiment: NCI tumour cell line growth inhibition, 48 h
reported property: GI50

compound	experimental result
Fc1ccc(Nc2ncc(-c3cc(F)c(Cl)cc3Cl)s2)cc1Cl	24300 nM
NC(=O)c1cc(I)ccc1NC(=O)/C=C/c1ccccc1Cl	362 nM
O=C(/C=C\c1cc(Br)ccc1O)/C=C/c1cc(Br)ccc1O	451 nM
Cc1ccc(/C=C(/C#N)n2nnc3ncccc32)cc1	2080 nM
Cc1cncc(-c2nc(NCCc3c[nH]c4ccccc34)c3ncn(C(C)C)c3n2)c1	2110 nM
O=C(COc1cccc(/C=C2\COc3ccccc3C2=O)c1)c1ccccc1	2040 nM
CCNC(=O)Oc1ccc(/C(=C(\C)c2ccc(Cl)cc2)c2ccc(OCCN(CC)CC)cc2)cc1	2520 nM
NS(=O)(=O)c1ccc(N=Nc2c(O)[nH]c3ccc(C(=O)NCCc4cnc[nH]4)cc23)cc1	> 25000 nM
N.N.N.N.N.N#Cc1nn[n-]n1.[Cl-].[Co+3]	> 100000 nM
CN1CCN(Cc2ccc(NC(=O)c3cncc(C#Cc4c(N)ncc5c(F)cccc45)c3)cc2C(F)(F)F)CC1	305 nM
COc1cc(N2CCN(C(C)C)CC2)ccc1Nc1nc(Nc2ccc(F)cc2C(=O)NCC(O)CO)c2cc[nH]c2n1 (stereo unspecified)	1250 nM
Nc1nc(=S)c2ncn(C3OC(CO)C(O)C3O)c2[nH]1 (stereo unspecified)	981 nM
COc1cc(-c2cc(-c3cccs3)c(C#N)c(N3CCOCC3)n2)cc(OC)c1OC	3160 nM
CC[O-].CC[O-].COc1ccc(C(=O)[CH-]C(C)=O)cc1OC.COc1ccc(C(=O)[CH-]C(C)=O)cc1OC.[Ti+4]	47800 nM
COc1ccc2nc3cc(Cl)ccc3c(NCCNCC(O)CO)c2c1 (stereo unspecified)	726 nM
Clc1ccc(-c2nc3c(-c4ccccc4)nc(-c4ccccc4)cn3c2-c2ccc(Cl)cc2)cc1	> 100000 nM

* * *

System: SK-MEL-5 melanoma
Test: NCI tumour cell line growth inhibition, 48 h

smiles repr	system name	GI50
Fc1ccc(Nc2ncc(-c3cc(F)c(Cl)cc3Cl)s2)cc1Cl	SK-MEL-5 melanoma	12.3 µM
C[C@@H](Oc1ccc(Oc2cnc3ccc(Cl)cc3n2)cc1)C(=O)O	SK-MEL-5 melanoma	> 82.1 µM
CNCCCn1c2c(c3ccc(Cl)cc3c1=O)C(=O)c1cc(OC)cnc1-2	SK-MEL-5 melanoma	1.12 µM
